System Under Test: C. difficile toxin A (Clostridium difficile, UniProt P16154 1-2710)
Sequence (P16154 whole entry): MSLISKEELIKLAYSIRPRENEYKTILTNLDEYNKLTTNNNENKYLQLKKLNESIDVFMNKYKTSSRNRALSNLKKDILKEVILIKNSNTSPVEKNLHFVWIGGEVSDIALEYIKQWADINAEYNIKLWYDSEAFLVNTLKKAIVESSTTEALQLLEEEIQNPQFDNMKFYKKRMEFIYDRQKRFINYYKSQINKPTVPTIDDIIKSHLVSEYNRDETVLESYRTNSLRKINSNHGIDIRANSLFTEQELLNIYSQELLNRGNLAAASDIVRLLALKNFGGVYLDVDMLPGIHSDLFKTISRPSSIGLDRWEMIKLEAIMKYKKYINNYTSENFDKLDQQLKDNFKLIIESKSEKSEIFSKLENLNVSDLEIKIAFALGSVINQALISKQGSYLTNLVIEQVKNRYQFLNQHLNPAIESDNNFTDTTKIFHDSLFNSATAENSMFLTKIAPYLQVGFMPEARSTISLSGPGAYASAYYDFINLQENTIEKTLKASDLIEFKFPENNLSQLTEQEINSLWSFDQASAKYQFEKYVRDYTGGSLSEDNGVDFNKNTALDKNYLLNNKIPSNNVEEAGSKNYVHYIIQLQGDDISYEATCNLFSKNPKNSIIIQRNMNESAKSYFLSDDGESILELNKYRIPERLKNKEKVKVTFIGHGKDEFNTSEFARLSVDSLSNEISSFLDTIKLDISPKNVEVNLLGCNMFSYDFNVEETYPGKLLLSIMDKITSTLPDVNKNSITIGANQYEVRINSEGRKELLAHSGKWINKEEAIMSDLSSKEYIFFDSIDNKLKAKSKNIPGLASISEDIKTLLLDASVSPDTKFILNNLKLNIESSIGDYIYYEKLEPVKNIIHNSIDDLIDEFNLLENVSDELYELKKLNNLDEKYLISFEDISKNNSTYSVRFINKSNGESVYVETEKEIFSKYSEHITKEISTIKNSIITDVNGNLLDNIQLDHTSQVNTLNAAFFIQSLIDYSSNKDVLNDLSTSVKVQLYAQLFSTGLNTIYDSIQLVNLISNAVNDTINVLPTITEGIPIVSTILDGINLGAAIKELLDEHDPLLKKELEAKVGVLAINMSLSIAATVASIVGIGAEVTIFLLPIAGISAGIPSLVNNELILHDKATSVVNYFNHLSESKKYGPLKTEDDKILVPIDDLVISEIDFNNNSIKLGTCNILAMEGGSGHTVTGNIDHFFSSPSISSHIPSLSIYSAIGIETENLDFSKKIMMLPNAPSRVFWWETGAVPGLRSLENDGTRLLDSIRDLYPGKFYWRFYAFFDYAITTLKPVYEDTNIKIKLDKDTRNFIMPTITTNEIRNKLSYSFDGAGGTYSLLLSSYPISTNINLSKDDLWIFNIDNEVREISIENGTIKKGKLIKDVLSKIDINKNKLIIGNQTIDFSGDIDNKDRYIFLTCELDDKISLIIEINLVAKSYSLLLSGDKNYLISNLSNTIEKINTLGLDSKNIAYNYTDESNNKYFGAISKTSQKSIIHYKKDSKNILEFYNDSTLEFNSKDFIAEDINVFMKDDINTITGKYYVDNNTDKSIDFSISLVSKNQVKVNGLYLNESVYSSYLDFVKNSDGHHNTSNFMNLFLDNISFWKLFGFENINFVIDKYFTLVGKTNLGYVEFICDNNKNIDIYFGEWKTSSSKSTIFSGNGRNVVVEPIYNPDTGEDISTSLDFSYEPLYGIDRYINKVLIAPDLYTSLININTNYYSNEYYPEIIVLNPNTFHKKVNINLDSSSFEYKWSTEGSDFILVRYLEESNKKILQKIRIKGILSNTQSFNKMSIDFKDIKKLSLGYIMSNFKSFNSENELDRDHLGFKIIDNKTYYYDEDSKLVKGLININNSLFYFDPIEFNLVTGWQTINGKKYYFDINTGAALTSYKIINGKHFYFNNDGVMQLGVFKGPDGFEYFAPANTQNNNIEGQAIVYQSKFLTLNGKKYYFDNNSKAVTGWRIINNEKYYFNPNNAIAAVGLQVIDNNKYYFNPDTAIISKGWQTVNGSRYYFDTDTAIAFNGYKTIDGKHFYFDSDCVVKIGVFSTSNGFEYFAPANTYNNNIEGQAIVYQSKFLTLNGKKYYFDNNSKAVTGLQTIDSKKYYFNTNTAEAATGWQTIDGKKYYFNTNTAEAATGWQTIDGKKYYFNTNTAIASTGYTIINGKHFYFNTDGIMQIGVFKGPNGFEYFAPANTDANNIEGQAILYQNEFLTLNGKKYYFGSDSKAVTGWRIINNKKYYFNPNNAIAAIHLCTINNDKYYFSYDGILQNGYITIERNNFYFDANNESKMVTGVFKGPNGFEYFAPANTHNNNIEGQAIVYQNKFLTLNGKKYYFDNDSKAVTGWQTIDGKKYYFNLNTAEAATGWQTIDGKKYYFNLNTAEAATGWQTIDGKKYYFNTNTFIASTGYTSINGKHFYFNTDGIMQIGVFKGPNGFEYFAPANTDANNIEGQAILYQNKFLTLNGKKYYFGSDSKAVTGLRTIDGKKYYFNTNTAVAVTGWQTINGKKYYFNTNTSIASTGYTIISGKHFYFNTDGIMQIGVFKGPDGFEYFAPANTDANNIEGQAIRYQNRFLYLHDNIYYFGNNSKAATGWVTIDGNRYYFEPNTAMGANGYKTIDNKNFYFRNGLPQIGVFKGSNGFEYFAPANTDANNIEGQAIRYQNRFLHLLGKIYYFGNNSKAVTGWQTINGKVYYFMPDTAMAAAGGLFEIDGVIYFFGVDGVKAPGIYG
Assay Info: cell-based or functional assay
Below is a list of entries, each paired with its recorded EC50 TcdA [RLU], toxin neutralization assay (TNA) on IMR90 cells value.
Readout Label: EC50 TcdA [RLU], toxin neutralization assay (TNA) on IMR90 cells (RLU)

Binder	Value Observed
hCDIFA-38 (antibody, V domains shown) VH: QVQLVESGPALVKPTQTLTLTCTFSGFSLSSIGMCVSWIRQPPGKALEWLARIDWDDSKYYSPSLQARLAISKDTSKNQVVLTMTNVDPMDAGTYYCARTSATLTGPSRVFDYWGQGSLVTVSS VL: DVVMTQSPATLSVSPGERATLSCRASQSVRFNLAWYQQKPGQAPRLLISGASTRATGIPARFSGSGSGTEFTLTISSLQSEDFAVYYCQQYNNWPPLTFGGGTKVEIKR	10500
hCDIFA-50 (antibody, V domains shown) VH: QVQLVQSGTEVKKPGASVKVSCKASGYTFTNYGISWVRQAPGQGLEWMGWISGNNGHTNYAQNLQGRVTMTTDTSTSTAYMELRSLRSDDTAVYYCARVTRWFGELLGDYWGQGTLVTVSS VL: QTVVTQEPSLTVSPGGTVTLTCASSTGAVTSGFLPNWFQQKPGQAPRALIYNTNNKHSWTPARFSGSLLGGKAALTLSGVQPEDEAEYYCLLYFDDAQVQVFGGGTKLTVLG	1490
hCDIFA-56 (antibody, V domains shown) VH: QVQLVQSGAEVKKPGASVKVSCKVSGYTLPELSMHWVRQAPGKGLEWMGGFDPEDDDTIYAQKFQGRVTMTEDTSTDTAYLELSSLRSEDTAVYYCATDSSPLYNENYFGSAAFDVWGQGTTVTVSS VL: AIRMTQSPSSLSASVGDRVTITCRASQGISTYLAWYQQKPGKAPKLLLYAASRLESGVPSRFSGSGSGTDYTLTINSLQPEDFATYYCQQYDRMPRTFGQGTKVEIKR	111000
hCDIFA-49 (antibody, V domains shown) VH: QVQLQESGPRLLEPSETLSLSCTVSGGSITSYYWGWIRQSPGKGLQWIGHIDSSGNTNYNYNSSLMNRVTISVVTSKNQFSLKLTSVTPADSAVYYCARVYLFYFGQSKWEYFDSWGQGTLVTVSS VL: QSALTQPPSVSGAPGQRVTISCTGSDSNIGTDYDVHWYKQVPGAAPKLLIYGINNRPSGVPDRFSGSKSGTSASLAITGLQAEDEGDYYCQSYDIRPSGSVVFGGGTKLTVLG	305000
hCDIFA-30 (antibody, V domains shown) VH: EVQLVESGAEVKRPGASVKVSCRTSAYAFTNYFMHWVRQAPGQGLEWVAVINLSGGNTNYAQSFQGRVNMTRDTSTSTVYMELSSLRSEDTAVYFCAIGGIWFGEYPNWFDPWGQGTLVTVSS VL: NFMLTQPPSVSAAPGRKVTVSCSGSSSNIGNNYVSWYQQFPGTAPKLLIYDNNKRHSGIPARFSGSKSGTSATLGITGLQTGDEADYYCATWDSSLKYVVFGGGTKLTVLG	1480
